The origin of these recorded values is paper PMC10630452.

Tested on: U251 cells (GC)
assayOverview: IC50 assay (MTS cell viability)
Format: cell-based
conditionContext: Homo sapiens, U-251, 48 h
parameter: IC50 (nM)
Expressed in nM, but write only the number.

Enquiry: For the molecule CC(C)=CCC[C@]1(C)C=Cc2c(O)c3c(c(CC=C(C)C)c2O1)O[C@]12C(=C[C@@H]4CC1C(C)(C)O[C@@]2(C/C=C(/C)C(N)=O)C4=O)C3=O [GA-amide, gambogic amide] , give its reported IC50.
Return: 168

* * *

Test system: BGC-823-SLC cells (GCSC)
assayOverview: IC50 assay (MTS cell viability)
Assay type: cell-based
conditionContext: 48 h
parameter: pIC50
FYI, pIC50 means -log10 of a concentration in mol per litre.

Enquiry: Look up and report pIC50, with BGC-823-SLC cells (GCSC) as system, for CC(C)=CCC[C@]1(C)C=Cc2c(O)c3c(c(CC=C(C)C)c2O1)O[C@]12C(=C[C@@H]4CC1C(C)(C)O[C@@]2(C/C=C(/C)C(N)=O)C4=O)C3=O [GA-amide, gambogic amide]
Return: 6.06
